I'd be grateful if you could share measured IC50 for these entries.
target: gamma secretase (Homo sapiens, UniProt P49768); construct: HEK293 cells stably expressing full length Amyloid Precursor Protein (APP); endogenous in cells; experiment: GSM cell-based assay: Aβ 42 inhibition or reduction in HEK 293 cells over-expressing APP (sandwich ELISA); conditions: approximate IC50; HEK293 cells stably expressing full length APP, 24 hours incubation, 10-point dose response starting at 10 μM
The response must be a number in µM with no trailing unit.

Task item: Answer with the recorded IC50 for the compound listed here: `Cc1cc(-c2ccc(NC(=O)[C@@H](C)c3ccccc3)cc2)ccn1`
Reply: 1.7

Task item: Answer with the recorded IC50 for the compound listed here: `Cc1cc(-c2ccc(NC(=O)c3cccc4c3oc3ccccc34)cc2)ccn1`
Reply: 6.71

Task item: Answer with the recorded IC50 for the compound listed here: `Cc1cc(-c2ccc(NC(=O)Cc3ccc(Oc4ccccc4)cc3)cc2)ccn1`
Reply: 5.78

Task item: Answer with the recorded IC50 for the compound listed here: Cc1cc(-c2ccc(NC(=O)C(C)c3cccc(Cl)n3)cc2)ccn1 (centres unmarked)
Reply: 1.97

Task item: Answer with the recorded IC50 for the compound listed here: Cc1cc(-c2ccc(NC(=O)C(C)c3cccc(-c4ccc(N5CCOCC5)nc4)c3)cc2)ccn1 (centres unmarked)
Reply: 0.154

Task item: Answer with the recorded IC50 for the compound listed here: Cc1cc(-c2ccc(NC(=O)C(C)c3cccc(N4CCN(c5ccccn5)CC4)c3)cc2)ccn1 (centres unmarked)
Reply: 0.166

Task item: Answer with the recorded IC50 for the compound listed here: COc1ncc(-c2cccc(C(C)C(=O)Nc3ccc(-c4ccnc(C)c4)cc3)c2)cn1 (centres unmarked)
Reply: 0.246
